- System: NCI/ADR-RES ovarian
- EXPERIMENT_NOTES: NCI-60 one-dose screen, 48 h (100 = growth as untreated, 0 = no growth, -100 = all killed)
- RECORDED_CONDITIONS: 10 µM unless noted
The panel holds about 83,000 compounds, 20% with a hit somewhere; the sample as a whole holds those more often.
Answer condition not met if growth is under 90%, and condition met if it is 90% or more.

- MOLECULE: "COc1c(N2CC3CCCNC3C2)c(F)cc2c(=O)c(C(=O)N/N=C/c3ccc(N(C)C)cc3)cn(C3CC3)c12 (stereo not given)"
  CLASSIFICATION: "condition not met"
- MOLECULE: "C=C1CC[C@@H]2[C@](C)(CO)[C@H](O)CC[C@@]2(C)[C@@H]1C/C(O)=C1\\CCOC1=O"
  CLASSIFICATION: "condition met"
- MOLECULE: "CCCCCCCn1cc2c(NCCc3ccccc3)ncnc2n1"
  CLASSIFICATION: "condition met"
- MOLECULE: "Cc1cc(C)c(N2C(=O)CC(Nc3ccc(Cl)cc3Cl)C2=O)c(C)c1 (stereo not given)"
  CLASSIFICATION: "condition met"
- MOLECULE: "CCO/C=N/C1=C(C#N)C(c2ccc(Cl)cc2)c2sc3c(C)cccc3c2O1 (stereo not given)"
  CLASSIFICATION: "condition not met"
- MOLECULE: "Cc1cc(-c2ccc(Cl)cc2)n(Cc2nnc(SCC(=O)Nc3ccc(S(N)(=O)=O)cc3)n2C2CCCCC2)n1"
  CLASSIFICATION: "condition met"
- MOLECULE: "CCc1cccc(NC(=O)CNc2cc(S(=O)(=O)N(C)C)cc(C)c2C)c1"
  CLASSIFICATION: "condition met"
- MOLECULE: "Cc1ccc(C2=NN(C)C(=O)C3(CCCC3)C2)cc1"
  CLASSIFICATION: "condition met"
- MOLECULE: "CCCCCc1ccc(S(=O)(=O)Nc2cccc(-c3csc(NC(=O)CNCCN(C)C)n3)c2)cc1"
  CLASSIFICATION: "condition not met"

---

- Test system: U251 CNS
- EXPERIMENT_NOTES: NCI-60 one-dose screen, 48 h
- RECORDED_CONDITIONS: 10 µM unless noted
The panel holds about 83,000 compounds, 20% with a hit somewhere; the sample as a whole holds those more often. The source made the active and inactive calls. Rule for the calls: active = growth percent below 10; inactive = the rest.
Labels: active, inactive

- MOLECULE: "Cc1ccc(C2=Nn3c(nnc3-c3ccccc3)SC2)cc1"
  CLASSIFICATION: "inactive"
- MOLECULE: "CNC(=O)c1c(NC(=O)c2cccc(C(F)(F)F)c2F)sc2c1CCC(=O)C2"
  CLASSIFICATION: "active"
- MOLECULE: "CC(=O)Nc1cccc(Nc2nc(N[C@H](C)c3ccccc3)c3ccccc3n2)c1"
  CLASSIFICATION: "inactive"
- MOLECULE: "CCCCNNC(=O)c1ccc(-c2cccc(F)c2F)cc1"
  CLASSIFICATION: "inactive"
- MOLECULE: "O=C(CN1CCN(c2cc(=O)n(-c3ccccc3)c3ccccc23)CC1)Nc1nc(-c2ccc(Cl)cc2)cs1"
  CLASSIFICATION: "inactive"
- MOLECULE: "COc1ccc(-c2nc(C(Cl)Cl)nc3cc(-c4ccccc4)nn23)cc1"
  CLASSIFICATION: "active"
- MOLECULE: "Cc1ccc(NC(=O)c2ccc(CN3CCOCC3)c(C(F)(F)F)c2)cc1Oc1ccc(-c2[nH]nc3ncnc(N)c23)cc1"
  CLASSIFICATION: "inactive"
- MOLECULE: "Cc1cc(C)c2sc(=O)n(Cc3nnc(SCCC(=O)O)o3)c2n1"
  CLASSIFICATION: "inactive"
- MOLECULE: "Cc1nc2ncc(-c3ccc4ncnc(NCc5ccccc5)c4c3)cc2[nH]1"
  CLASSIFICATION: "inactive"
- MOLECULE: "CS(=O)(=O)Nc1cc(-c2ccc3ncc(C#N)c(Nc4cccc(Cl)c4F)c3c2)cnc1Cl"
  CLASSIFICATION: "active"
- MOLECULE: "Cc1ccc(N2C(=O)/C(=C/C=C/c3ccco3)SC2=S)cc1"
  CLASSIFICATION: "inactive"
- MOLECULE: "Nc1ccccc1NC(=O)c1ccc(NC(=O)C/C=C/c2cccnc2)cn1"
  CLASSIFICATION: "inactive"
- MOLECULE: "CCCCCc1ccc(S(=O)(=O)Nc2cccc(-c3csc(NC(=O)CNCCN(C)C)n3)c2)cc1"
  CLASSIFICATION: "inactive"
- MOLECULE: "O=C1/C(=C/C=C/c2ccco2)SC(=S)N1C1CCCCC1"
  CLASSIFICATION: "inactive"
- MOLECULE: "CCN(CC)c1cn(-c2ccc(S(N)(=O)=O)cc2)nn1"
  CLASSIFICATION: "inactive"
- MOLECULE: "O=C(NNc1nc2cc(F)ccc2n2c(CN3CCCC3)ccc12)c1cnccn1"
  CLASSIFICATION: "inactive"
- MOLECULE: "CNCc1cccc2c1OCCCCCCC(C)(O)CC(C)(C)S(=O)(=O)c1ccc(cc1)-c1cnc(N)c(n1)C(=O)N2 (stereo not given)"
  CLASSIFICATION: "active"
- MOLECULE: "O=C(c1ccc(O)c(C(=O)N2Cc3ccc(OCCC[P+](c4ccccc4)(c4ccccc4)c4ccccc4)cc3C2)c1)N1Cc2cccc(F)c2C1"
  CLASSIFICATION: "inactive"
- MOLECULE: "N#Cc1c(NC(=O)c2cccc(C(F)(F)F)c2F)sc2c1CCC(=O)C2"
  CLASSIFICATION: "active"
- MOLECULE: "CS(=O)(=O)c1ccc(-c2nn(-c3ccccc3)cc2/C=N/NC(=O)c2nc(N)n[nH]2)cc1"
  CLASSIFICATION: "inactive"
